Provide the reported normalized growth of each item.
test.protocol: chemical genetic growth profiling, strain panel (AID 1159580);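 further: tested at 20 µM; growth read once vehicle control cultures reached saturation at 30 °C; 1 = growth at the plate median or of vehicle wells; lower values mean less growth of the strain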
details: S. cerevisiae deletion strains, growth OD, locus YLR058C, strain SHM2, hits give low values
Out of some 5,500 compounds screened, about 2,000 (36%) were called active. Not shown: some 18% with an inconclusive outcome. The list shows a part of the results.
Answers are plain numbers.

State the recorded normalized growth for every item in the following list.
1. CN(C)c1ccc(O)c2c1C[C@H]1C[C@H]3[C@H](N(C)C)C(=O)C(C(N)=O)=C(O)[C@@]3(O)C(=O)C1=C2O
2. C[C@H]1c2cccc(O)c2C(O)=C2C(=O)[C@]3(O)C(O)=C(C(N)=O)C(=O)[C@@H](N(C)C)[C@@H]3[C@@H](O)[C@@H]21
3. CN(C)[C@@H]1C(=O)C(C(N)=O)=C(O)[C@@]2(O)C(=O)C3=C(O)c4c(O)cccc4[C@@](C)(O)[C@H]3[C@H](O)[C@@H]12

a:
[0.957, 0.976, 1]

q: // Input: Cc1cc(=O)[nH]c(=S)[nH]1 . Output its normalized growth only.
a: 1.01

====

test.protocol: chemical genetic growth profiling, strain panel (AID 1159580);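 further: tested at 20 µM; growth read once vehicle control cultures reached saturation at 30 °C; 1 = growth at the plate median or of vehicle wells; lower values mean less growth of the strain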
details: S. cerevisiae deletion strains, growth OD, locus YNL322C, strain KRE1 (second series)
Screen size: about 5,500 compounds; about 2,000 (36%) were called active. Another 18% or so got no clear call; they are omitted. Rule as the data show it: active = normalized growth mostly below about 0.91 (no sharp cut-off); inconclusive = no clear call, values can overlap the other calls; inactive = mostly above about 0.92. Some of the results follow.
Form entry, call: pick from class 1 (active), class 0 (inactive)

compound=NC(=O)NC(=O)Cc1ccccc1 discrete_label="class 0"
compound=NCC(=O)c1ccccc1 discrete_label="class 0"
compound=CC(=O)Nc1ccc(S(=O)(=O)Nc2onc(C)c2C)cc1 discrete_label="class 0"

q: Please share the test call associated with CC(=O)O[C@H]1CCC2(C)C3=C(CCC2C1(C)C)[C@@]1(C)CC[C@@H](C(C)CCC=C(C)C)[C@]1(C)CC3 (stereo partly specified) .
a: class 0

q: Please share the test call associated with O=C1NC(O)=NC1(c1ccccc1)c1ccccc1 .
a: class 0

q: Please share the test call associated with O=C(CC(=O)c1ccccc1)c1ccccc1 .
a: class 1

q: Please share the test call associated with CC(C)=CCCC(C)[C@@H]1CC[C@]2(C)C3=C(CC[C@@]12C)C1(C)CC[C@H](O)C(C)(C)C1CC3 (stereo partly specified) .
a: class 0

q: Please share the test call associated with Cc1cn[nH]c1 .
a: class 0

q: Please share the test call associated with N[C@@H](CCC(=O)N[C@@H](CS)C(=O)NCC(=O)O)C(=O)O .
a: class 0

q: Please share the test call associated with CC(N=C(NC#N)Nc1ccncc1)C(C)(C)C (stereo unspecified) .
a: class 0

q: Please share the test call associated with CC(=O)O[C@H]1CCC2(C)C3=C(CCC2C1(C)C)[C@]1(C)CCC(C(C)CCC=C(C)C)[C@@]1(C)CC3 (stereo partly specified) .
a: class 0

====

test.protocol: chemical genetic growth profiling, strain panel (AID 1159580);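 further: tested at 20 µM; growth read once vehicle control cultures reached saturation at 30 °C; 1 = growth at the plate median or of vehicle wells; lower values mean less growth of the strain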
details: S. cerevisiae deletion strains, growth OD, locus YLR113W, strain HOG1, hits give low values
Screen size: about 5,500 compounds; about 2,000 (36%) were called active. Inconclusive results (about 18%) are left out. The list shows a part of the results.
Simple rule here: normalized growth less than 1 is yes, otherwise no.

smiles_str=CC(C)=CCc1c2c(c3occ(-c4ccc(O)c(O)c4)c(=O)c3c1O)C=CC(C)(C)O2 discrete_label=yes
smiles_str=CC(C)=CCc1c2c(c3occ(-c4ccc(O)cc4)c(=O)c3c1O)C=CC(C)(C)O2 discrete_label=yes

For the next question, use this compound.
q: Below 1 on normalized growth? Entry CCN(CC)CCOC(=O)C1(C2CCCCC2)CCCCC1
a: no
